# measurement target: δβγ hENaC (Homo sapiens, UniProt P51168+P51170+P51172)
# Sequence (P51172 1-638 isoform P51172-1): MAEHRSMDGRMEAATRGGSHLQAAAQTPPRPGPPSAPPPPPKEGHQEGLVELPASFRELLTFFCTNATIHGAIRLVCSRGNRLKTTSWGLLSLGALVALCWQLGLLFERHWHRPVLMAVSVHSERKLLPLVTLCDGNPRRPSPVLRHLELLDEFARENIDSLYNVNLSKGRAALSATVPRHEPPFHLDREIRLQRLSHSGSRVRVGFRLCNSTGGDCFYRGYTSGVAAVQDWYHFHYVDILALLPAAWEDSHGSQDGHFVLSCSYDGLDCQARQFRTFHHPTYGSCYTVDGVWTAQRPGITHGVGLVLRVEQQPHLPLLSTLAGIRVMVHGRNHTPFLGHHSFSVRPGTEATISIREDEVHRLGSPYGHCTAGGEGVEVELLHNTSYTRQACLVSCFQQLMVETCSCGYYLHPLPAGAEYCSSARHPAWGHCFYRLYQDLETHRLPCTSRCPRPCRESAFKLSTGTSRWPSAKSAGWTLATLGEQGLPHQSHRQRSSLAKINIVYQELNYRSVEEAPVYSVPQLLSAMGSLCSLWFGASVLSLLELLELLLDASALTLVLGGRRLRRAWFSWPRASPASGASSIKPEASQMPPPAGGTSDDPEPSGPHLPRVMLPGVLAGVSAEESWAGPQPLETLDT
# Sequence (P51168 1-640): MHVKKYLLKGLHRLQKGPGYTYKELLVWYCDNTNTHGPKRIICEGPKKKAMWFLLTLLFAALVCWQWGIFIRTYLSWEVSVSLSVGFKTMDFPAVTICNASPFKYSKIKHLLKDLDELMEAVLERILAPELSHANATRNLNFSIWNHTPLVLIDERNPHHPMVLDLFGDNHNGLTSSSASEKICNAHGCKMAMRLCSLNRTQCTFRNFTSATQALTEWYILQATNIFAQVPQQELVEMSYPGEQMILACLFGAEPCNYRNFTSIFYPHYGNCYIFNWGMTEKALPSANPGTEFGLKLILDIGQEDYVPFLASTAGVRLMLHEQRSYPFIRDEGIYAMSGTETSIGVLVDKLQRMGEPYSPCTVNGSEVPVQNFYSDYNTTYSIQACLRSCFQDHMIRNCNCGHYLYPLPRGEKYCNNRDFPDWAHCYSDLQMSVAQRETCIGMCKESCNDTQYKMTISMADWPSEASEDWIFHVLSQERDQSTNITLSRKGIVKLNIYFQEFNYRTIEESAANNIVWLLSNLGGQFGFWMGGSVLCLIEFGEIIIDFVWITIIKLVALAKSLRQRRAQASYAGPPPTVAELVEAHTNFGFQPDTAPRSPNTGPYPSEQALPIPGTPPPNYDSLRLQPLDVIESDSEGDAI
# Sequence (P51170 1-649): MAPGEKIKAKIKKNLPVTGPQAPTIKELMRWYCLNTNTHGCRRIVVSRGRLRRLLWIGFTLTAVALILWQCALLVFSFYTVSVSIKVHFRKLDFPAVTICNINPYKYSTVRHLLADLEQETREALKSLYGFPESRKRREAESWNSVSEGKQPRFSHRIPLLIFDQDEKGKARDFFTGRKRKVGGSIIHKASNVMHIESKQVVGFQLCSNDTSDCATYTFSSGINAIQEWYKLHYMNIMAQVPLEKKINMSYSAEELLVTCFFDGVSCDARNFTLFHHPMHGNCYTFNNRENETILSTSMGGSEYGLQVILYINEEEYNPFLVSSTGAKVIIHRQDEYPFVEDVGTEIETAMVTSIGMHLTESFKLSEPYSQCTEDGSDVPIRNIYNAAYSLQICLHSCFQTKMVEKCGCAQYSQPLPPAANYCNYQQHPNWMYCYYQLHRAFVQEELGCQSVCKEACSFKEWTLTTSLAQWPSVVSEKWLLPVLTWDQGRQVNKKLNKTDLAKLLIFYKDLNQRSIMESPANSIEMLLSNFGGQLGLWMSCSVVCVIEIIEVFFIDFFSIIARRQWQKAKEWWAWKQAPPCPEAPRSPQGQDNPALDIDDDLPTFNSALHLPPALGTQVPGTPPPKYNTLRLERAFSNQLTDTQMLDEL
# assay notes: two-electrode voltage clamp of oocytes expressing delta beta gamma hENaC
# run parameters: Xenopus oocytes, n=10, mean±SEM
experimental readout: IC50 (µM)
Could you give me the number in µM? Just the number is fine.

For the compound N=C(N)NC(=O)c1nc(Cl)c(N)nc1N [amiloride] , what IC50 is on record?
2.7
